- Protocol: Confirmatory fluorescence-based thiol-reactive (MSTI) qHTS assay for identification of artifact compounds; further: potency means the concentration at half of the fitted maximal effect
- Study conditions: MSTI thiol-reactivity probe, 1 h; series mostly up to 39.2 µM
Inconclusive results are not listed. Activity calls are given as the source filed them. The call rests on the fitted dose curve; in most records, active means well fitted inhibition curve with a large enough effect; inconclusive means small, poorly fitted or top-dose-only effect; inactive means no such curve, though single readings can be large or run the other way.
Readout kind: Potency

                            compound_string  readout_kind  experimental_result
0  O=C(O)CCc1c2ccc(=O)c(O)c-2oc2c(O)c(O)ccc12       Potency     1090 nM (active)
1  COc1ccccc1Cc1nc2ccccc2nc1SCC(=O)Nc1c(C)cccc1C       Potency             inactive
2  Cc1ccc2cccc(NC(=O)c3ccc(-c4cccc([N+](=O)[O-])c4)o3)c2n1       Potency             inactive
